Test: Measuring spectral characteristics (absorption and emission maxima, extinction coefficients)
Assay type: physicochemical
Details: water; neutral form
Listed here: items and their measured Abs. peak.

SMILES_TEXT: CN(C)/C=C/C1=NC(=C\c2ccc(O)cc2B(F)F)/C(=O)N1C
Abs. peak / nm: 467
--
SMILES_TEXT: CC1=N/C(=C\c2ccc(O)cc2B(F)F)C(=O)N1C
Abs. peak / nm: 404
--
SMILES_TEXT: CC1=N/C(=C\c2cc(F)c(O)c(F)c2B(F)F)C(=O)N1C
Abs. peak / nm: 400
--
SMILES_TEXT: CC1=N/C(=C\c2cc(F)c(O)cc2B(F)F)C(=O)N1C
Abs. peak / nm: 392

* * *

# key: entry, value: Abs. peak
Assay: Measuring spectral characteristics (absorption and emission maxima, extinction coefficients)
Assay type: physicochemical
Settings: acetonitrile

SMILES_TEXT: CCN(CC)c1ccc(/C=C2\N=C(C)N(C)C2=O)c(B(F)F)c1
Abs. peak: 493 nm
--
SMILES_TEXT: CCN(CC)c1ccc(/C=C2N=C(/C=C/N(C)C)N(C)C\2=O)c(B(F)F)c1
Abs. peak: 510 nm
--
SMILES_TEXT: CC1=N/C(=C\c2ccc(N)cc2B(F)F)C(=O)N1C
Abs. peak: 451 nm
--
SMILES_TEXT: CC1=N/C(=C\c2ccc(N(C)C)cc2B(F)F)C(=O)N1C
Abs. peak: 483 nm

* * *

Test: Measuring spectral characteristics (absorption and emission maxima, extinction coefficients)
Type: physicochemical
Settings: acetonitrile
Method: To measure spectral characteristics of some compounds with the formula I weighted portions of compounds p-NH2-BDI-BF2, p-dimethylamino-BDI-BF2, p-diethylamino-BDI-BF2, p-HOBDI-BF2, di-F-p-HOBDI-BF2, p-diethylamino-BDI-dimethylaminoethenyl-BF2 and p-HOBDI-dimethylaminoethenyl-BF2 were dissolved in water, ethanol and acetonitrile. Absorption spectra were measured on Varian Cary 100 Bio spectrophotometer, fluorescence spectra were measured on Varian Cary Eclipse scanning spectrofluorometer. […]

SMILES_TEXT: CCN(CC)c1ccc(/C=C2\N=C(C)N(C)C2=O)c(B(F)F)c1
UNITS: M⁻¹ cm⁻¹
ext. coef.: 54000

* * *

Assay: Measuring spectral characteristics (absorption and emission maxima, extinction coefficients)
Type: physicochemical
Details: water; anionic form
// reported Abs. peak for each item listed

SMILES_TEXT: CN(C)/C=C/C1=NC(=C\c2ccc(O)cc2B(F)F)/C(=O)N1C
Abs. peak [nm]: 502
//
SMILES_TEXT: CC1=N/C(=C\c2ccc(O)cc2B(F)F)C(=O)N1C
Abs. peak [nm]: 485
//
SMILES_TEXT: CC1=N/C(=C\c2cc(F)c(O)cc2B(F)F)C(=O)N1C
Abs. peak [nm]: 478
//
SMILES_TEXT: CC1=N/C(=C\c2cc(F)c(O)c(F)c2B(F)F)C(=O)N1C
Abs. peak [nm]: 484

* * *

Assay: Measuring spectral characteristics (absorption and emission maxima, extinction coefficients)
Type: physicochemical
Settings: water; anionic form
Experimental: To measure spectral characteristics of some compounds with the formula I weighted portions of compounds p-NH2-BDI-BF2, p-dimethylamino-BDI-BF2, p-diethylamino-BDI-BF2, p-HOBDI-BF2, di-F-p-HOBDI-BF2, p-diethylamino-BDI-dimethylaminoethenyl-BF2 and p-HOBDI-dimethylaminoethenyl-BF2 were dissolved in water, ethanol and acetonitrile. Absorption spectra were measured on Varian Cary 100 Bio spectrophotometer, fluorescence spectra were measured on Varian Cary Eclipse scanning spectrofluorometer. […]

MOLECULE: CC1=N/C(=C\c2cc(F)c(O)c(F)c2B(F)F)C(=O)N1C [di-F-p-HOBDI-BF2]
ext. coef. / M⁻¹ cm⁻¹: 44400
--
MOLECULE: CC1=N/C(=C\c2cc(F)c(O)cc2B(F)F)C(=O)N1C [F-p-HOBDI-BF2]
ext. coef. / M⁻¹ cm⁻¹: 38300
--
MOLECULE: CC1=N/C(=C\c2ccc(O)cc2B(F)F)C(=O)N1C [p-HOBDI-BF2]
ext. coef. / M⁻¹ cm⁻¹: 47000
